- Experiment: APR_HepG2_MitoMass_72hr: Apredica 72-hour HepG2 Assay for Mitochondrial Mass (AID 2282924);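 note: MitoTracker Red CMXRos stain intensity per cell imaged as mitochondrial mass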
- Assay setup: high-content imaging, actives raise or lower the signal
The source made the active and inactive calls. Rule for the calls: active = hit-call score of the fitted dose curve at least 0.9, where 1 is the maximum; inactive = score below 0.9.
Can you answer with just one of these options? t = active, f = inactive

Look over these answered cases.
For this compound, state the assay outcome: CN(C)c1ccccc1
f

// param item: OCCOCCO ; yields the recorded call
f

Just curious, what result did Nc1ccc([N+](=O)[O-])cc1 get here?
f

I'd appreciate the recorded outcome for Nc1cc(Cl)cc(C(=O)O)c1Cl from this test.
f

Any idea what this test logged for c1ccc(NNc2ccccc2)cc1 ?
t

Continuing:
Each compound tested received a call. Report the one for Cc1cccc(N)c1N .
f

For CN(C)C(=O)Nc1ccc(Cl)cc1 , what call appears in the results of this test?
f

What is the recorded call for this compound in the test? CCC(C)c1ccc(O)cc1 (configuration not stated)
f

Look up the recorded call for CC(C)(O)c1cnn2c(-c3ccc(F)c(-c4c(F)cccc4C#N)c3)cnc2n1 in this test.
t

How did this test come out for CN(C)c1ccc(C(=O)c2ccc(N(C)C)cc2)cc1 ?
t

Hi team, can someone confirm the assay call for CC(C)(OOC(C)(C)c1ccccc1)c1ccccc1 ?
f

Record lookup: outcome of this test for Cc1ccc([N+](=O)[O-])cc1 ?
f

====

- Read-out: Cytochrome P450 (CYP1A2), CYP1A2 (gene 1544)
- Experiment: LTEA_HepaRG_CYP1A2: Life Technologies and Expression Analysis (LTEA) Assay for Cytochrome P450 (CYP1A2) using HepaRG (AID 2283479)
- Assay setup: mRNA level, 48 h; actives raise or lower the signal
The source made the active and inactive calls. Rule for the calls: active = hit-call score of the fitted dose curve at least 0.9, where 1 is the maximum; inactive = score below 0.9.
Please reply with one of these outcomes: TRUE for active, FALSE for inactive

Record excerpt, results attached:
In this assay, the call recorded for CCN(CC)CCO was what?
FALSE

What did this assay record as the result for [O-][Cl+]O ?
FALSE

What call does the record list for Cc1ccc(N)cc1 ?
FALSE

Recorded test call requested for C[N+](C)(C)CC1CO1 (centres undefined)
FALSE

Call for entry CO[C@@H]1[C@H](OC(=O)NC(=O)CCl)CC[C@]2(CO2)[C@H]1[C@@]1(C)O[C@@H]1CC=C(C)C :
FALSE

What is the recorded call for this compound in the test? CCCCOC(=O)c1ccccc1C(=O)OCc1ccccc1
TRUE

Hi, sorry to bother you, what did the test record for Clc1ccc(C(c2ccc(Cl)cc2)C(Cl)Cl)cc1 ?
FALSE

Write down the call the test reported for this compound. Item: Cc1cccc(N)c1N
TRUE

Write down the call the test reported for this compound. Item: CC(C)(OOC(C)(C)c1ccccc1)c1ccccc1
FALSE

Short answer needed: outcome of this test for N#CC(Br)(Br)C(N)=O ?
FALSE

Continuing:
Hi, sorry to bother you, what did the test record for O=C(Nc1ccccc1)c1ccccc1I ?
TRUE

Please share the test call associated with [Cl-].[Cl-].[Hg+2] .
TRUE

# lookup: test call for Nc1ccc([N+](=O)[O-])cc1
TRUE

====

- Experiment: ATG_MRE_CIS: Attagene CIS-FACTORIAL HepG2 Assay for human Metal Responsive Element (MRE) (AID 2282954)
- Assay setup: HepG2 MRE cis-reporter transcription, Attagene multiplex; actives raise or lower the signal
Calls of active or inactive are those of the source. How the source made its calls: active means hit-call score of the fitted dose curve at least 0.9, where 1 is the maximum; inactive means score below 0.9.
Property measured: outcome

Measured outcome of O=[N+]([O-])C(Br)(CO)CO : inactive

Reported outcome for Oc1ccccc1Cl was inactive

Form field outcome, entry O=Cc1ccco1 : inactive
